Header: pIC50 / Protein kinase C epsilon type (Homo sapiens, UniProt Q02156) / multiple publications
pIC50: −log10 of the molar value.
PARAMETER: pIC50

molecule=Nc1ncc(Br)nc1C(=O)Nc1[nH]c(=O)ncc1-c1ccco1 recorded_result="5.00 to 6.00"
molecule="CN1CCC(NC2CCCN(c3ccncc3NC(=O)c3nc(Br)cnc3N)C2)CC1 (centres unmarked)" recorded_result="5.00 to 6.00"
molecule="Nc1ncc(-c2ccncc2)nc1C(=O)Nc1cnccc1N1CCCC(N)C1 (centres unmarked)" recorded_result="5.00 to 6.00"
molecule=CN1C(C)(C)CC(Nc2nc(Nc3ccc(-n4cccc4)c(C#N)c3)ncc2Cl)CC1(C)C recorded_result=6.71
molecule=Nc1ncc(-c2ccccc2F)nc1C(=O)Nc1cc(C(=O)c2ccccc2)ccc1N1CCNCC1 recorded_result="< 4.60"
molecule=Nc1ncc(Br)nc1C(=O)Nc1ccccc1N1CCC(N)CC1 recorded_result="> 6.00"
molecule=CC1(C)CC(Nc2nc(Nc3ccc4c(c3)-n3nnnc3C(F)(F)O4)ncc2F)CC(C)(C)N1 recorded_result="> 6.60"
molecule=Nc1nccnc1C(=O)Nc1[nH]c(=O)ncc1N1CCC(F)CC1 recorded_result="5.00 to 6.00"
molecule=CCOc1ccc(Cl)c(-c2ccc(N)c(C(=O)Nc3cnccc3N3CCC[C@H](N)C3)n2)c1 recorded_result="5.00 to 6.00"
molecule="N#Cc1ccc(N2CCCC(N)C2)c(NC(=O)c2nccnc2N)c1 (centres unmarked)" recorded_result="> 6.00"
molecule=Nc1nccnc1C(=O)Nc1ccccc1N1CCC[C@H](N)C1 recorded_result="> 6.00"
molecule=CC1(C)CC(Nc2nc(Nc3cc(OCC(F)(F)F)cc(OCC(F)(F)F)c3)ncc2F)CC(C)(C)N1 recorded_result=6.70
molecule="COc1ccc(N2CCCC(N)C2)c(NC(=O)c2nc(Br)cnc2N)c1 (centres unmarked)" recorded_result="> 6.00"
molecule="Nc1nccnc1C(=O)Nc1[nH]c(=O)ncc1N1CCCC(C(F)(F)F)C1 (centres unmarked)" recorded_result="> 6.00"
molecule=Nc1cc(C(F)(F)F)c(-c2ccc(N)c(C(=O)Nc3cnccc3N3CCC[C@H](N)C3)n2)cn1 recorded_result="4.60 to 5.00"
molecule=NCCC(=O)N1CCN(c2ccncc2NC(=O)c2nc(Br)cnc2N)CC1 recorded_result="> 6.00"
molecule=COc1ccc(Nc2ncc(C(F)(F)F)c(NC3CC(C)(C)N(C)C(C)(C)C3)n2)cc1OC(F)F recorded_result=6.23

---

Listed below are compounds with IC50 for UniProt Q02156, each taken from published literature.
PARAMETER: IC50

compound=Nc1nccnc1C(=O)Nc1cc(C(=O)c2ccccc2)ccc1N1CCC(N)CC1 target_system="UniProt Q02156" parameter=IC50 recorded_result="1 to 10 µM"
compound=CN1C(C)(C)CC(Nc2nc(Nc3ccc(C(F)(F)F)c(N4CCN(S(C)(=O)=O)CC4)c3)ncc2F)CC1(C)C target_system="UniProt Q02156" parameter=IC50 recorded_result="0.029 µM"
compound=Nc1ncc(-c2ccccc2Cl)nc1C(=O)Nc1[nH]c(=O)ncc1N1CCCCC1 target_system="UniProt Q02156" parameter=IC50 recorded_result="> 25 µM"
compound="CC1C[C@@H](CNc2nc(Nc3ccc4c(c3)-n3nnnc3C(C)(C)O4)ncc2F)C(C)(C)N1 (stereo partly drawn)" target_system="UniProt Q02156" parameter=IC50 recorded_result="< 0.25 µM"
compound=NCCC(=O)N1CCN(c2cnc(=O)[nH]c2NC(=O)c2nc(Br)cnc2N)CC1 target_system="UniProt Q02156" parameter=IC50 recorded_result="1 to 10 µM"
compound=COc1ccc(-c2cnc(N)c(C(=O)Nc3cnccc3N3CCNCC3)n2)cc1 target_system="UniProt Q02156" parameter=IC50 recorded_result="< 1 µM"
compound=Nc1ncc(Br)nc1C(=O)Nc1[nH]c(=O)ncc1-c1ccccn1 target_system="UniProt Q02156" parameter=IC50 recorded_result="> 25 µM"
compound=COc1ccc(N2CCC(N)CC2)c(NC(=O)c2nccnc2N)c1 target_system="UniProt Q02156" parameter=IC50 recorded_result="< 1 µM"
compound=Nc1ncc(-c2ccccc2)nc1C(=O)Nc1cnccc1N1CCNCC1 target_system="UniProt Q02156" parameter=IC50 recorded_result="< 1 µM"
